# target.of.assay: T1, cMetECDHis (human, UniProt P08581 25-932, limits assumed, biotinylated in the cross-block ELISA of Example 17)
# T1 construct: Expressed in HEK-293F cells; also called soluble cMetECDHis; biotinylated cMetECDHis
# experiment.description: cross-block ELISA; competitor 045
value.kind: residual binding, % of no competitor (%)
Only the number, expressed in %, is required.

anti-c-Met HuMab 005 (IgG1) (antibody, V domains shown, also called TH1016-005; PC1016-005) VH: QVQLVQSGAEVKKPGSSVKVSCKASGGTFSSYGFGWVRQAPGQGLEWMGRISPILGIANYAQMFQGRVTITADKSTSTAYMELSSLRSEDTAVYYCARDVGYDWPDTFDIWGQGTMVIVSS VL: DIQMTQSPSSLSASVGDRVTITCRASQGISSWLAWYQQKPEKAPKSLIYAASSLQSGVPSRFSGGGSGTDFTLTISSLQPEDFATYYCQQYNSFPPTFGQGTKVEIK ... 117
anti-c-Met HuMab 008 (IgG1) (antibody, V domains shown, also called TH1016-008; PC1016-008) VH: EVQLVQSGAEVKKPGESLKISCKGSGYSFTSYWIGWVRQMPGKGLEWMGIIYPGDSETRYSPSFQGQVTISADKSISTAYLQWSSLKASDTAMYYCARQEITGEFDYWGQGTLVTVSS VL: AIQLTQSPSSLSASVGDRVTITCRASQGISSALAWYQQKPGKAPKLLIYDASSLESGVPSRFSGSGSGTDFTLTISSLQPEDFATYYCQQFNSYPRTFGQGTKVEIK ... 100
anti-c-Met HuMab 181 (IgG1) (antibody, V domains shown, also called TH1016-181; PC1016-181) VH: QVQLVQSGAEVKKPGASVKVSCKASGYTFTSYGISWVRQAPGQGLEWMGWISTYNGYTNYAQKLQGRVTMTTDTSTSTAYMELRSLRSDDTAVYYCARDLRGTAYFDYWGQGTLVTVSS VL: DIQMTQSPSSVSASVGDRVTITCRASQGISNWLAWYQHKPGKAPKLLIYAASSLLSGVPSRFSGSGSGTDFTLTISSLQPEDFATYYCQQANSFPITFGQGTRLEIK ... 96.8
IgG1-1016-058 (antibody, V domains shown, also called IgG1-058; TH1016-058) VH: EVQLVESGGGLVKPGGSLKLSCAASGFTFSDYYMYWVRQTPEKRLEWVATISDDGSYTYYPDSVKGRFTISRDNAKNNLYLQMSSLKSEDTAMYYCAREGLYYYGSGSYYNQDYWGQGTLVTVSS VL: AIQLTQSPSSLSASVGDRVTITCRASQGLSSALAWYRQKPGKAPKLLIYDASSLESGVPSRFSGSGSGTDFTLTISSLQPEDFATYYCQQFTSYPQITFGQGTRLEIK ... 112
IgG1-024 (antibody, V domains shown, also called TH1016-024; PC1016-024) VH: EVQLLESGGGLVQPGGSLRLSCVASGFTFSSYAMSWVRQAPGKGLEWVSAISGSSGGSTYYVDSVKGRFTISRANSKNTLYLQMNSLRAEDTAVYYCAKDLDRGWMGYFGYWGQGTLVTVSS VL: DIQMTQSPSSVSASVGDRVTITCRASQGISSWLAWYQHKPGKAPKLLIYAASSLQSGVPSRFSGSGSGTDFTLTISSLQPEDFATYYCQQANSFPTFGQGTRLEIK ... 98.1
IgG1-1016-022 (antibody, V domains shown, also called TH1016-022; PC1016-022) VH: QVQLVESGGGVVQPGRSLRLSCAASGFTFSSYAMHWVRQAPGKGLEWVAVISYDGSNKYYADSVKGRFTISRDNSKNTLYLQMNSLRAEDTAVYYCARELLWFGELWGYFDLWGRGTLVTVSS VL: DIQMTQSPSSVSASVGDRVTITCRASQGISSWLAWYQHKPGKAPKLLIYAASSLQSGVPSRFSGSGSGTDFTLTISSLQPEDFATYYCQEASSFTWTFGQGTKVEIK ... 95.7
anti-c-Met HuMab 045 (IgG1) (antibody, V domains shown, also called TH1016-045; PC1016-045) VH: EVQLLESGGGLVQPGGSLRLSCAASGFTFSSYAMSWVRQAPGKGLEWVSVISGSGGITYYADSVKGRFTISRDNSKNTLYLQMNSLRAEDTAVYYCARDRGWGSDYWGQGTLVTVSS VL: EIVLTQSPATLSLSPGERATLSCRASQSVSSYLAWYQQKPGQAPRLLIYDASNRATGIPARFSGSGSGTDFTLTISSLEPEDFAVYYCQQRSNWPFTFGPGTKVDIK ... 21.3

Pending binder:
Lookup: Bench note: what residual binding, % of no competitor did IgG1-1016-069 (antibody, V domains shown, also called clone 069; TH1016-069) VH: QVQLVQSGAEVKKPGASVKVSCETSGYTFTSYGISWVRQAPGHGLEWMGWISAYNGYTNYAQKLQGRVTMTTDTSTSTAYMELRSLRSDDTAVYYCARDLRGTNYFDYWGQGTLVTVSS VL: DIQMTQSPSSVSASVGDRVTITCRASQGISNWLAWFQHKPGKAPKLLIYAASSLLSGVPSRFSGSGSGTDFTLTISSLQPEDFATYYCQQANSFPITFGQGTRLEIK show?
Found: 99.8

Measured values drawn from patent US20150329642A1 for this set.
